Target: Nitric oxide synthase (endothelial, human recombinant) eNOS (Homo sapiens)
Construct: purchased Axxora LLC ALX-201-070
Sequence (P29474 whole entry): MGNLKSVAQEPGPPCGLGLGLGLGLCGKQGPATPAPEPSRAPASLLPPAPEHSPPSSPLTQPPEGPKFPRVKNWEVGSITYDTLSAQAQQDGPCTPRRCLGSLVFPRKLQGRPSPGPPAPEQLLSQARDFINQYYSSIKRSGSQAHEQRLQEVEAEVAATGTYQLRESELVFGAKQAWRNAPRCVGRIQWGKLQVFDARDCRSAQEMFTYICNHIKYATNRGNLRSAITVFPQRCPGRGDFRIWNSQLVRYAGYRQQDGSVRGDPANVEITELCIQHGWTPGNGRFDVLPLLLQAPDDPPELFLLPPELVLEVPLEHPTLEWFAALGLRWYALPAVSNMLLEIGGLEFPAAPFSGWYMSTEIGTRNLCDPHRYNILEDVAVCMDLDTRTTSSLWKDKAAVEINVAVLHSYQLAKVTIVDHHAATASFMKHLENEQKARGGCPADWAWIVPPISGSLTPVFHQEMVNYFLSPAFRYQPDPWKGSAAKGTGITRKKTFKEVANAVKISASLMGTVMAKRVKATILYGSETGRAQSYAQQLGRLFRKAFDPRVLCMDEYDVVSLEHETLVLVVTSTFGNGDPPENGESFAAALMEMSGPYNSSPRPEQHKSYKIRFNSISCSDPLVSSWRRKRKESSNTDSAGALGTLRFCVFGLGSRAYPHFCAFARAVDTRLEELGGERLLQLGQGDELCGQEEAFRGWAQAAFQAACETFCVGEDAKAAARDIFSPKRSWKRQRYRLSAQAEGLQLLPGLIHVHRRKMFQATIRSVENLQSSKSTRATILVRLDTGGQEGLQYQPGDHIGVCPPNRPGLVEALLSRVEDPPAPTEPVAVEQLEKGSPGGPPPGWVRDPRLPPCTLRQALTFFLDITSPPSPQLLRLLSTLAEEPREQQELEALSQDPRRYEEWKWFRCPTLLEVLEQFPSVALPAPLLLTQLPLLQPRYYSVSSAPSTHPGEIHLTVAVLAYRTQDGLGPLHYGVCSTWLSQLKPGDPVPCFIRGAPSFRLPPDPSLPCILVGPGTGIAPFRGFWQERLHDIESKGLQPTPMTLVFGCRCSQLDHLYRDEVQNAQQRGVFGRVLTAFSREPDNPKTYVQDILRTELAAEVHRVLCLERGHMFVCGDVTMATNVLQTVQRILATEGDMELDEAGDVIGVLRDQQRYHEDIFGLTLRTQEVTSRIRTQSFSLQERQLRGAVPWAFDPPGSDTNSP
Test: eNOS (human) enzyme assay, [3H]-L-arginine to L-citrulline conversion
Type: biochemical
Details: Table 2; compounds tested as hydrochloride salts
measurement.kind: IC50 (µM)
Lab book: enter the figure in µM, no units written.

>>> number("CN(C)C1CC=C(c2c[nH]c3ccc(NC(=N)c4cccs4)cc23)CC1 (racemic) [(±)-2]")
51.4

// query Report IC50 for CCNC1CC=C(c2c[nH]c3ccc(NC(=N)c4cccs4)cc23)CC1 (racemic) [(±)-6] please.
// result 40.3

// query Report IC50 for CNC1CC=C(c2c[nH]c3ccc(NC(=N)c4cccs4)cc23)CC1 (racemic) [(±)-3] please.
// result 32

// query Report IC50 for CNC1CC=C(c2c[nH]c3ccc(NC(=N)c4cccs4)cc23)CC1 (single isomer, unassigned) [Compound 3b] please.
// result 40.9

// query Report IC50 for CN(C)C1CCC(c2c[nH]c3ccc(NC(=N)c4cccs4)cc23)CC1 (centres unmarked) please.
// result 31.8

// query Report IC50 for CNC1CC=C(c2c[nH]c3ccc(NC(=N)c4cccs4)cc23)CC1 (single isomer, unassigned) [Compound 3a] please.
// result 53.4

// query Report IC50 for CN(C)C1CC=C(c2c[nH]c3ccc(NC(=N)c4cccs4)cc23)CC1 (single isomer, unassigned) [Compound 2a] please.
// result 47.1

// query Report IC50 for CN(C)C1CC=C(c2c[nH]c3ccc(NC(=N)c4cccs4)cc23)CC1 (single isomer, unassigned) [Compound 2b] please.
// result 96

----------
Biological target: Nitric oxide synthase (neuronal, human recombinant) nNOS (Homo sapiens, UniProt P29475)
Construct: purchased Axxora LLC ALX-201-068
Sequence (P29475 whole entry): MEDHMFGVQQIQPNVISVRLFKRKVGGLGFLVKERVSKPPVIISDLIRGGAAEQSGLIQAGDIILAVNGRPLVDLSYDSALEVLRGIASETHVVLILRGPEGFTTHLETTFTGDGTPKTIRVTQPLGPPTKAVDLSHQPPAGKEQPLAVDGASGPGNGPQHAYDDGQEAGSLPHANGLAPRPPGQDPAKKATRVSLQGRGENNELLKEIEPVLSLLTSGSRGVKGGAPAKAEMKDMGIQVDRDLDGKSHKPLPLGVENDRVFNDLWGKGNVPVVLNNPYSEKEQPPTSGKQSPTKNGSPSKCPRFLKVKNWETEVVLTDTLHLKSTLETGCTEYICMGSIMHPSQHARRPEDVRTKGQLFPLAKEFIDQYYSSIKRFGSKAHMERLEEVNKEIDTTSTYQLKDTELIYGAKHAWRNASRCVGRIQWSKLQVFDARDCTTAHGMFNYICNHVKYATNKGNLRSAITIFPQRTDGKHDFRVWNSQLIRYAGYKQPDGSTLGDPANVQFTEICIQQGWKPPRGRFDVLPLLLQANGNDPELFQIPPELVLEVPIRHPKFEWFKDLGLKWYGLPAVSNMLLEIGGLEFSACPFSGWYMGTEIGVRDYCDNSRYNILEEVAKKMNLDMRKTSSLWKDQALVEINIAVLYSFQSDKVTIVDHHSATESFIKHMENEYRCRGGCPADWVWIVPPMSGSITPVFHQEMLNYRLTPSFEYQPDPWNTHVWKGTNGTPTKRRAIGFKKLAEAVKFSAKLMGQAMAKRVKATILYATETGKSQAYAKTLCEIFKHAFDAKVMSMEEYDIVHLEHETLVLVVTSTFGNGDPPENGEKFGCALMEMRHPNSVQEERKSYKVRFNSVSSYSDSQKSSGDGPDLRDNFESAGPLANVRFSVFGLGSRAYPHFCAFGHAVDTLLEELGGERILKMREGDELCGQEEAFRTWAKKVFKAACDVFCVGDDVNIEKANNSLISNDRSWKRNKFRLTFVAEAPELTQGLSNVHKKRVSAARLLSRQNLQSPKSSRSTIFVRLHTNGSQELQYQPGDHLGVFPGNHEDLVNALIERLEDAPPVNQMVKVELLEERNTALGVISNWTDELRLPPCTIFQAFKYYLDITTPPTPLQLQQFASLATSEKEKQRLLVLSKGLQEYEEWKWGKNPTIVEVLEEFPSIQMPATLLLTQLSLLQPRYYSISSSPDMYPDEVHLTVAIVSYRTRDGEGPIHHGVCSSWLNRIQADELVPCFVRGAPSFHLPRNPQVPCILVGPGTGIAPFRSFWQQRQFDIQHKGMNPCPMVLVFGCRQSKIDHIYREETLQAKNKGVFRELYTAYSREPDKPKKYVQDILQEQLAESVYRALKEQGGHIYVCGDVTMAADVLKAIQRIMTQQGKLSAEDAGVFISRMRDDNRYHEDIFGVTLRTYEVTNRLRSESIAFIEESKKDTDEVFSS
Test: nNOS (human) enzyme assay, [3H]-L-arginine to L-citrulline conversion
Assay type: biochemical
Settings: Table 2; compounds tested as hydrochloride salts
pIC50: −log10 of the molar value.
Lab note: compare pIC50 against 6. Equal or greater, write YES. Smaller, write NO.

Use the examples below as a reference point.
>>> assigned_label("CN(C)C1CC=C(c2c[nH]c3ccc(NC(=N)c4cccs4)cc23)CC1 (racemic) [(±)-2]")
"NO"
>>> assigned_label("CNC1CC=C(c2c[nH]c3ccc(NC(=N)c4cccs4)cc23)CC1 (racemic) [(±)-3]")
"NO"
>>> assigned_label("CNC1CC=C(c2c[nH]c3ccc(NC(=N)c4cccs4)cc23)CC1 (single isomer, unassigned) [Compound 3a]")
"YES"

// query Evaluate CNC1CC=C(c2c[nH]c3ccc(NC(=N)c4cccs4)cc23)CC1 (single isomer, unassigned) [Compound 3b] : pIC50 at minimum 6?
// result YES

// query Evaluate CN(C)C1CCC(c2c[nH]c3ccc(NC(=N)c4cccs4)cc23)CC1 (centres unmarked) [Compound 4] : pIC50 at minimum 6?
// result NO

----------
Molecular target: Nitric oxide synthase (endothelial, human recombinant) eNOS (Homo sapiens)
Construct: purchased Axxora LLC ALX-201-070
Assay: eNOS (human) enzyme assay, [3H]-L-arginine to L-citrulline conversion
Assay type: biochemical
Conditions: Table 3
Parameter pIC50: see the listing below.
pIC50 (log units): -log10 of the concentration in mol/L.

>>> number("CNC1CCCC(c2c[nH]c3ccc(NC(=N)c4cccs4)cc23)C1 (single isomer, unassigned) [Compound 7a]")
4.31

// query Report pIC50 for CNC1CCCC(c2c[nH]c3ccc(NC(=N)c4cccs4)cc23)C1 (single isomer, unassigned) [Compound 7b] please.
// result 4.12

// query Report pIC50 for CNC1CCCC(c2c[nH]c3ccc(NC(=N)c4cccs4)cc23)C1 (racemic) [(±)-8] please.
// result 5.11

// query Report pIC50 for CNC1CCCC(c2c[nH]c3ccc(NC(=N)c4cccs4)cc23)C1 (single isomer, unassigned) [(±)-7] please.
// result 4.11

// query Report pIC50 for CCNC1CCC(c2c[nH]c3ccc(NC(=N)c4cccs4)cc23)C1 (mixture of isomers) please.
// result 4.84

Values from patent US20090131503A1
